Values from patent US20240076343A1

Target: T1, recombinant His-tagged human PD-1 (Acro Biosystems) (human, UniProt Q15116 25-167)
T1 construct: His-tagged; also called hPD-1
T1 sequence (Q15116 25-167 limits assumed): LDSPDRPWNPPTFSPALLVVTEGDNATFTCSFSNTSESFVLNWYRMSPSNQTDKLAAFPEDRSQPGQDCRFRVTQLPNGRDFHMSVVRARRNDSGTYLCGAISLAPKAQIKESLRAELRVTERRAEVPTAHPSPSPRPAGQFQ
Test: SPR Carterra LSA;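 also: antibodies or fusion proteins amine-coupled on an HC30M chip, soluble His-tagged human or cynomolgus PD-1 titrated over them, non-regenerative kinetics, constants fitted from titration curves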
Documented koff across a set of binders
Number in s⁻¹, nothing else.

binder	koff / s⁻¹
OMC.2.C6-hIgG4 (antibody, V domains shown) VH: EVQLLESGGGLVQPGGSLRLSCTASGFTFSSYEMQWVRQAPGKGLEWVLGITSSSSHIFYADSVKGRFTVSRDNSKNTLYLQMNSLRAEDTAVYYCTKDLNSYYGLDVWGQGTTVTVSS VL: QSVMTQPPSASGTPGQRVTISCSGSTSNLGNNYVSWYQHLPGTAPKLLIYGNDQRPSGVPDRFSGSKSGTSASLAISGLQSDDEADYYCSSWDASLNVWVFGGGTKLTVLG	0.00066

Field: next binder
Consider OMC.1.D6-hIgG4 (antibody, V domains shown) VH: EVQLLESGGGLVQPGGSLRLSCAASGFTFSDYYMSWVRQAPGKGLEWVSAISSSGGTIFYADSVKGRFIISRDNSKNTLYLQMNSLRAEDTAVYYCAKHKWNDVYYDAMDVWGQGTTVTVSS VL: QSVLTQPPSASGTPGQRVTISCSGSNSNIGRNLVNWYQQLPGTAPKLLIYTVDQRPSGVPDRFSGSKSGTSASLAISGLASEDEADYYCAAWDSSLNSWVFGGGTKLTVLG . Its measured koff is 0.0017
